System: IL-6-GFP PC-9
assay.summary: cell viability (CCK-8 OD) relative to DMSO control (fraction of control); higher = more viable cells
test.context: compound concentration: 10 uM; treatment time: 48 h
cell viability by entry:
API note: the answer field is a bare number with no unit suffix.

Incoming: Specify measured cell viability for CC(C(=O)O)c1ccc2c(c1)CC(=O)c1ccccc1S2 (centres undefined) [Zaltoprofen] .
Outgoing: 0.542

Incoming: Specify measured cell viability for Cc1c(N)c(=O)n(-c2ccccc2)n1C [4-Aminoantipyrine] .
Outgoing: 1.21

Incoming: Specify measured cell viability for COc1ccc2c(c1)c(CC(=O)OCC(=O)O)c(C)n2C(=O)c1ccc(Cl)cc1 [Acemetacin] .
Outgoing: 0.954

Incoming: Specify measured cell viability for Nc1nc(F)nc2c1ncn2C1OC(CO)C(O)C1O (centres undefined) [Fludarabine] .
Outgoing: 0.232

###

cell viability by entry:
System: IL-6-GFP PC-9
assay.summary: cell viability (CCK-8 OD) relative to DMSO control (fraction of control); higher = more viable cells
test.context: compound concentration: 10 uM; treatment time: 48 h
API note: the answer field is a bare number with no unit suffix.

Reference set, count: 3
# molecule, system.name, cell viability
rows = [
    ("CCN(CC)CCNC(=O)c1c(C)[nH]c(/C=C2\\C(=O)Nc3ccc(F)cc32)c1C", "IL-6-GFP PC-9", 0.911),
    ("Nc1nc(Cl)nc2c1ncn2C1OC(CO)C(O)C1F (centres undefined)", "IL-6-GFP PC-9", 0.337),
    ("COc1ccc(-c2cc(=S)ss2)cc1", "IL-6-GFP PC-9", 1.17),
]

Incoming: Specify measured cell viability for CN(N=O)C(=O)NC1C(O)OC(CO)C(O)C1O (centres undefined) [Streptozotocin (STZ)] .
Outgoing: 0.636

Incoming: Specify measured cell viability for O=C(O)CCCN1CCC(OC(c2ccc(Cl)cc2)c2ccccn2)CC1.O=S(=O)(O)c1ccccc1 (centres undefined) [Bepotastine Besilate] .
Outgoing: 0.84

Incoming: Specify measured cell viability for OCC1OC(c2ccc(Cl)c(Cc3ccc(OC4CCOC4)cc3)c2)C(O)C(O)C1O (centres undefined) .
Outgoing: 0.905

Incoming: Specify measured cell viability for O=C(O)c1ccccc1O.[NaH] [Sodium salicylate] .
Outgoing: 1.03

Incoming: Specify measured cell viability for C=CC(=O)Nc1cccc(Oc2nc(Nc3ccc(N4CCN(C)CC4)cc3)nc3ccsc23)c1 .
Outgoing: 0.465

Incoming: Specify measured cell viability for CN(C)C(=O)c1cc2cnc(Nc3ccc(N4CCNCC4)cn3)nc2n1C1CCCC1 .
Outgoing: 1.01

Incoming: Specify measured cell viability for COc1ccc2cc(CCC(C)=O)ccc2c1 .
Outgoing: 1.11

Incoming: Specify measured cell viability for CC(C)c1nc(N(C)S(C)(=O)=O)nc(-c2ccc(F)cc2)c1/C=C/C(O)CC(O)CC(=O)O (centres undefined) .
Outgoing: 1.12

Incoming: Specify measured cell viability for CN1C(C(=O)Nc2ccccn2)=C(O)c2sccc2S1(=O)=O .
Outgoing: 1.21

Incoming: Specify measured cell viability for CC(=O)Nc1ccc(CC(=O)O)cc1 .
Outgoing: 1.15

Incoming: Specify measured cell viability for CC(=O)OC1(C(C)=O)CCC2C3C=C(C)C4=CC(=O)CCC4(C)C3CCC21C (centres undefined) [Megestrol Acetate] .
Outgoing: 1.13

Incoming: Specify measured cell viability for CC12CCC3c4ccc(O)cc4CC(CCCCCCCCCS(=O)CCCC(F)(F)C(F)(F)F)C3C1CCC2O (centres undefined) .
Outgoing: 1.02

Incoming: Specify measured cell viability for CC1CC2C3CCC4=CC(=O)C=CC4(C)C3(F)C(O)CC2(C)C1(O)C(=O)COP(=O)([O-])[O-].[Na+].[Na+] (centres undefined) [Dexamethasone Sodium Phosphate] .
Outgoing: 0.831

Incoming: Specify measured cell viability for COc1ccc(-c2ccc3cc(C(=O)O)ccc3c2)cc1C12CC3CC(CC(C3)C1)C2 .
Outgoing: 0.765

Incoming: Specify measured cell viability for O=C([O-])CC(O)(CC(=O)[O-])C(=O)[O-].O=C([O-])CC(O)(CC(=O)[O-])C(=O)[O-].[BiH6+3].[K+].[K+].[K+] .
Outgoing: 0.986

Incoming: Specify measured cell viability for CCC(C)(Oc1ccc(C2(c3ccc(OC(C)(CC)C(=O)O)cc3)CCCCC2)cc1)C(=O)O (centres undefined) [Clinofibrate] .
Outgoing: 1.23

Data provenance: the supplement of paper PMC8866396
